- Tested on: HaCat
- test_summary: Cytotoxic Profiling of Annotated Libraries Using Quantitative High-Throughput Screening (AID 1296008); note: % is set by controls: 0 for no effect and ±100 for the full control effect; nearly all actives have a fitted effect of over 60% in size
- test_settings: Five cell lines viability, CellTiter-Glo ATP luminescence, 48-72 h; active compounds read low
Records with an inconclusive call do not appear.
measured_parameter: max response (%)
Just the number please, in %, no unit attached.

Please report the recorded max response for CC(S)C(=O)NCC(=O)O (stereo not drawn) .
-2.01

Moving on to the next compound: Cc1cc2cc3c(C)cc(=O)oc3c(C)c2o1
-8.67

Now consider CCOC(=O)C1=C[C@@H](OC(CC)CC)[C@H](NC(C)=O)[C@@H](N)C1 and answer again.
1.74

# iterate: O=C(OC1C[C@H]2CC[C@@H](C1)[N+]21CCCC1)C(O)(c1ccccc1)c1ccccc1 (stereo partly drawn)
1.67

And then N[C@@H](Cc1cc(I)c(Oc2cc(I)c(O)c(I)c2)c(I)c1)C(=O)O , what is it?
-2.11

Quick one: CCc1nc(N)nc(N)c1-c1ccc(Cl)cc1
3.72

Queued: CCCCCCCCCCCCCCCCCCCCCCO
4.38

Would you mind doing CC1=C(C)C(=O)C(C(CCCCCC(=O)O)c2ccccc2)=C(C)C1=O (stereo not drawn) as well?
-5.06

Consider next the compound CC1(C)NC(=O)N(c2ccc([N+](=O)[O-])c(C(F)(F)F)c2)C1=O in the same way.
-0.412

What do you have for Cn1c(NCCN(CCO)CCCc2ccc([N+](=O)[O-])cc2)cc(=O)n(C)c1=O ?
0.714

For O=C(CS(=O)Cc1ccco1)NCC=CCOc1cc(CN2CCCCC2)ccn1 (stereo not drawn) then?
0.787

What do you get for CC(=O)Nc1ccc(O)cc1 ?
-8.57

Likewise for O=C(O)c1cn(-c2ccc(F)cc2)c2cc(N3CCNCC3)c(F)cc2c1=O ?
-14.9

Please answer likewise for O=C(O)CCNC(=O)c1ccc(N=Nc2ccc(O)c(C(=O)O)c2)cc1
-13.4

Now the same for CC1(C)C(=O)N(CCN2CCC(C(=O)c3ccc(F)cc3)CC2)c2ccccc21
-16.9

Item: CN(C)C(=O)COC(=O)Cc1ccc(OC(=O)c2ccc(N=C(N)N)cc2)cc1
3.28

Item: Oc1ccc(-c2nc(-c3ccc(F)cc3)c(-c3ccncc3)[nH]2)cc1
-6.19

What do you have for COC1=C(OC)C(=O)C(CCCCCCCCCCO)=C(C)C1=O ?
-8.33

COCCCOc1ccnc(CS(=O)c2nc3ccccc3[nH]2)c1C (stereo not drawn) , same question.
-2

Another: O=C1NC(=O)C(c2ccccc2[N+](=O)[O-])=C1Nc1ccc(O)c(Cl)c1
-25.3

Try COc1ccc2cc([C@H](C)C(=O)O)ccc2c1 next.
-13.6

Now consider CCCCc1ccc2nc(NC(=O)OC)[nH]c2c1 and answer again.
3.13

Item: Nc1nc(N)c(N=O)c(OCC2CCCCC2)n1
-17.6

---

- test_summary: qHTS Screen of the MIPE 4.0 Collection Against Ewings Sarcoma (TC71) (AID 1259253); note: potency is the fitted concentration of half-maximal effect; nearly all actives have a fitted effect of over 40% in size
- test_settings: TC71 Ewing sarcoma viability, CellTiter-Glo, 48 h; series mostly up to 45.8 µM
Records with an inconclusive call do not appear. Active and inactive are the calls of the source. Calls follow the shape of the dose curve; as a rule, active = well fitted inhibition curve with a large enough effect; inconclusive = small, poorly fitted or top-dose-only effect; inactive = no such curve, though single readings can be large or run the other way.
measured_parameter: Potency

So what's the measured Potency for this one? O=C(c1ccccc1)c1ccc2n1CCC2C(=O)O (centres undefined)
4.18 µM (active)

For CC[C@]1(O)C[C@H]2CN(CCc3c([nH]c4ccccc34)[C@@](C(=O)OC)(c3cc4c(cc3OC)N(C=O)[C@H]3[C@@](O)(C(=O)OC)[C@H](OC(C)=O)[C@]5(CC)C=CCN6CC[C@]43[C@@H]65)C2)C1 then?
0.0033 µM (active)

Field entry: CN(C)c1ccc2nc3ccc(=[N+](C)C)cc-3sc2c1
3.72 µM (active)

Please give the result for CCCOc1ccc2nc(NC(=O)OC)[nH]c2c1 too.
0.0093 µM (active)

---

- test_summary: qHTS Assay for Identification of Small Molecule Antagonists for NFkB Signaling Pathway. (AID 624479);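 note: pathway stimulated with TNF alpha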; note: potency is the fitted concentration of half-maximal effect
- test_settings: NFkB pathway reporter cell assay, antagonist mode; series mostly up to 38.3 µM
Activity calls are given as the source filed them. Calls come from the whole dose curve.
measured_parameter: Potency

// known answers, use as guide
compound=Cc1cccc(-c2[nH]ncc2-c2ccc3ncccc3n2)n1 reading="13.7 µM (active)"
compound=Nc1nc(Cl)nc2c1ncn2[C@H]1C[C@H](O)[C@@H](CO)O1 reading=inactive
compound="CCN(CCO)CCCC(C)Nc1ccnc2cc(Cl)ccc12 (centres undefined)" reading=inactive
compound=Cc1nc(Nc2ncc(C(=O)Nc3c(C)cccc3Cl)s2)cc(N2CCN(CCO)CC2)n1 reading="16.8 µM (active)"
compound="Nc1cccc2c1CN(C1CCC(=O)NC1=O)C2=O (centres undefined)" reading=inactive

Suppose we examine the compound S=c1nc[nH]c2nc[nH]c12 ; what Potency value has been reported?
inactive

What about CC(C)C[C@H](NC(=O)[C@H](Cc1ccccc1)NC(=O)c1cnccn1)B(O)O ?
0.0053 µM (active)

Please give the result for COc1cc2c(N3CCN(C(=O)Nc4ccc(OC(C)C)cc4)CC3)ncnc2cc1OCCCN1CCCCC1 too.
inactive

Consider next the compound Cc1ccc(Nc2nccc(N(C)c3ccc4c(C)n(C)nc4c3)n2)cc1S(N)(=O)=O in the same way.
16.8 µM (active)

---

- test_summary: Cell Viability - LYMP2-021 (AID 974);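 note: compound exposure lasts 24 hours at 37 °C; nearly all actives have a fitted effect of over 55% in size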
- test_settings: LYMP2-021 lymphoblastoid cells viability; series mostly up to 92.2 µM
Inconclusive results are not listed. Active and inactive are the calls of the source. Calls come from the whole dose curve; as a rule, active = well fitted cell-killing curve with a large enough effect; inconclusive = small, poorly fitted or top-dose-only effect; inactive = flat fitted curve, though single readings scatter.
Parameter call: string, one of label 1 for active, label 0 for inactive

Answer briefly: the call reported for CN(C)c1ccc2nc3ccc(=[N+](C)C)cc-3sc2c1 in this assay.
label 1

Request: Cc1ccc(C)c(OCCCC(C)(C)C(=O)O)c1
label 0

Further, for CS(=O)(=O)OCCCCOS(C)(=O)=O ?
label 0

What about CCCCC(CC)COC(=O)C(C#N)=C(c1ccccc1)c1ccccc1 (centres undefined) ?
label 0

What about NS(=O)(=O)c1cc(C(=O)O)c(NCc2ccco2)cc1Cl ?
label 0

Then c1ccc2[nH]c(-c3cscn3)nc2c1 ?
label 0

Then this compound: CC(=O)Nc1ccc(O)cc1
label 0

// next record Nc1ccc(S(N)(=O)=O)cc1
label 0

Now consider COc1c2occc2cc2ccc(=O)oc12 .
label 0

---

- Tested on: C2A
- test_summary: qHTS profiling for inhibitors of Plasmodium falciparum proliferation (AID 504749); note: nearly all actives have a fitted effect of over 60% in size
- test_settings: P. falciparum in erythrocytes, SYBR Green DNA, 72 h; series mostly up to 28.7 µM
Records with an inconclusive call do not appear. The source made the active and inactive calls. Calls come from the whole dose curve; as a rule, active = well fitted inhibition curve with a large enough effect; inconclusive = small, poorly fitted or top-dose-only effect; inactive = flat fitted curve, though single readings scatter. Peptide text beside a SMILES is read from it.
Respond using exactly one of the listed classes: 1 (active), -1 (inactive)

Each compound tested received a call. Report the one for CCOc1cc(CC(=O)N[C@@H](CC(C)C)c2ccccc2N2CCCCC2)ccc1C(=O)O .
-1

Consider next the compound COC(=O)[C@H](Cc1ccccc1)NC(=O)[C@@H](N)CC(=O)O (H-Asp-Phe-OMe) in the same way.
-1

And then CNC[C@@H](O)[C@@H](O)[C@H](O)[C@H](O)CO , what is it?
-1

Same for CC(S)C(=O)NCC(=O)O (stereo not given)
-1

Let us now turn to CC1(C)NC(=O)N(c2ccc([N+](=O)[O-])c(C(F)(F)F)c2)C1=O
-1

Let us now turn to COc1ccc(C2(C#N)CCC(C(=O)O)CC2)cc1OC1CCCC1 (stereo not given)
-1

Cc1ccc(C)c(OCCCC(C)(C)C(=O)O)c1 ?
-1

Now give it for C=C(c1ccc(C(=O)O)cc1)c1cc2c(cc1C)C(C)(C)CCC2(C)C too.
-1

CN(C)C(=O)COC(=O)Cc1ccc(OC(=O)c2ccc(N=C(N)N)cc2)cc1 , same question.
-1

Repeat with CC(C)(S)[C@@H](N)C(=O)O
-1

Let us now turn to CN(C)CCc1c[nH]c2ccc(Cn3cncn3)cc12
-1

Thanks! And CN(C)c1ccc2nc3ccc(=[N+](C)C)cc-3sc2c1 ?
1

Field entry: Cc1c(OCC(F)(F)F)ccnc1CS(=O)c1nc2ccccc2[nH]1 (stereo not given)
-1

Record: Cc1ccc(NC(=O)c2ccc(CN3CCN(C)CC3)cc2)cc1Nc1nccc(-c2cccnc2)n1
1

And then CCN(CC)CCOc1ccc(Cc2ccccc2)cc1 , what is it?
-1

---

- test_summary: qHTS drug screen for cell cycle checkpoint inhibitors in PARPi-resistant BRCA-mutant ovarian cancer cell lines. (AID 1963452)
- test_settings: PEO1/OlaR viability, CellTiter-Glo luminescence, 96 h; active compounds read low
measured_parameter: Z-AUC
// print number alone

Looking for the measured Z-AUC of Clc1ccc(C(Cn2ccnc2)OCc2c(Cl)cccc2Cl)c(Cl)c1 (stereo unspecified) , can you help?
0.975

Same for Clc1ccc(C(Cn2ccnc2)OCc2ccsc2Cl)c(Cl)c1 (stereo unspecified)
-0.189

Can you handle CCCc1cc(=O)[nH]c(=S)[nH]1 next?
-0.283

Also COc1cc2c(N3CCN(C(=O)Nc4ccc(OC(C)C)cc4)CC3)ncnc2cc1OCCCN1CCCCC1 , if possible.
1.04

Proceed to CCCS(=O)c1ccc2nc(NC(=O)OC)[nH]c2c1 (stereo unspecified)
-0.279

Another: COc1ccccc1N1CCN(CCN(C(=O)C2CCCCC2)c2ccccn2)CC1
0.61

Then this molecule: COc1ccc(C2(C#N)CCC(C(=O)O)CC2)cc1OC1CCCC1 (stereo unspecified)
0.982

And for O=C(O)c1cc(=O)c2c(OCC(O)COc3cccc4oc(C(=O)O)cc(=O)c34)cccc2o1 ?
1.18

And what about the molecule C[C@@H](N)C1CCC(C(=O)Nc2ccncc2)CC1 (stereo partly specified) ?
0.275

How about this molecule: NCCCCNCCCN
0.434

How about this molecule: Nc1ccn([C@@H]2O[C@H](CO)[C@@H](O)C2O)c(=O)n1 (stereo partly specified)
-1.18
